Assay: Phase 1 double-masked multiple-dose plasma PK study of roflumilast topical ophthalmic suspension (0.3%)
Type: in vivo, human
Settings: human, plasma, other: topical ophthalmic eye drops, 0.3 % suspension, single drop in each eye BID, plasma, Day 8, median; read-out: Tmax
measuredMetric: Tmax

-- ask Record request: Tmax value, item O=C(Nc1c(Cl)cncc1Cl)c1ccc(OC(F)F)c(OCC2CC2)c1
-- reply 1 h

---

Test: Phase 1 double-masked multiple-dose plasma PK study of roflumilast topical ophthalmic suspension (0.3%)
Format: in vivo, human
Conditions: human, plasma, other: topical ophthalmic eye drops, 0.3 % suspension, single drop in each eye BID, plasma, Day 8, mean (SD); read-out: AUC24
measuredMetric: AUC (ng·h/mL)
The reply should contain only the number, in ng·h/mL.

-- ask Record request: AUC value, item O=C(Nc1c(Cl)cncc1Cl)c1ccc(OC(F)F)c(OCC2CC2)c1 [Roflumilast]
-- reply 12.8
